system: RXF 393 renal; assay: NCI tumour cell line growth inhibition, 48 h
assay_endpoint: TGI

Consider Cc1ccc([N+](=O)[O-])cc1NC(=O)C(=O)C1CCC2=C(Sc3ccccc3N2)C1=O (centres undefined) . Its measured TGI is > 100 µM

Consider "N#C/C(=C\c1cccnc1)c1nc2ccccc2o1" . Its measured TGI is > 100 µM

Consider COC(=O)C1=C(C)NC2(C)OC(C)(O)C(C(C)=O)C12C(C)=O (centres undefined) . Its measured TGI is > 100 µM

Consider Cc1cc(O)c2c(c1)C(=O)C(c1c(C)cc3c(c1O)C(=O)C1OC1C3=O)=CC2=O (centres undefined) . Its measured TGI is 3.11 µM

Consider "Cc1ccc(SCC(O)=C2C(=O)CCCC2=O)cc1" . Its measured TGI is > 100 µM

Consider "c1ccc(COc2cccc3cccnc23)cc1" . Its measured TGI is > 100 µM

Consider COC(=O)C1[C@H](C(=O)OC)C1(Br)CBr (some centres undefined) . Its measured TGI is > 100 µM

Consider "O=C(Nc1nc(C23CC4CC(CC(C4)C2)C3)cs1)c1cc2cc([N+](=O)[O-])ccc2oc1=O" . Its measured TGI is 74.8 µM

Consider CC1(C)CC2(C)OC(=N)C1(C#N)C2(C#N)C#N (centres undefined) . Its measured TGI is 27.2 µM

----------
tested on: 786-0 renal; assay: NCI tumour cell line growth inhibition, 48 h; in the data active means GI50 below about 0.43 µM; inactive means the rest
Hi! Could you answer with just one of these? active, inactive

query: Any idea what this test logged for N#CC1CCc2c(c(-c3cn[nH]c3C(F)(F)F)nc3c(F)cc4[nH]ncc4c23)C1 (configuration not stated) ?
result: inactive

query: Any idea what this test logged for "CCN(CC)CCOc1nc2cc(OC)c(OC)cc2c2c1-c1ccc(OC)cc1C2=O" ?
result: inactive

query: Any idea what this test logged for "N#C/C(=C\c1cccnc1)c1nc2ccccc2o1" ?
result: inactive

query: Any idea what this test logged for "COc1cc(/C=C\c2cc(OC)c(OC)c(OC)c2)cc(NS(=O)(=O)c2cccc(Cl)c2)c1OC" ?
result: active

query: Any idea what this test logged for "O=C(Nc1cccc([N+](=O)[O-])c1)c1cc2ccccc2cc1O" ?
result: inactive

query: Any idea what this test logged for "Cc1ccc(/C=C2\CN(Cc3cn(CCNc4ccnc5cc(Cl)ccc45)nn3)C/C(=C\c3ccc(C)cc3)C2=O)cc1" ?
result: inactive

query: Any idea what this test logged for C#CCOc1cccc(Nc2ncc3ncn(C4CCN(C(=O)CCl)C4)c3n2)c1 (configuration not stated) ?
result: inactive

query: Any idea what this test logged for "O=c1oc2cc(OS(=O)(=O)c3ccccc3)ccc2c2c1CCCCC2" ?
result: inactive

query: Any idea what this test logged for "CC1(C)N=C(N)N=C(N)N1c1ccc(OCCCCNC(=O)c2ccc(S(=O)(=O)F)cc2)c(Cl)c1" ?
result: inactive

query: Any idea what this test logged for "C[C@H]1CC2=CC(=O)CC[C@]2(C)[C@H]2CC[C@@]3(C)[C@@H](CC[C@]3(C)O)[C@H]12" ?
result: inactive

query: Any idea what this test logged for "O=C(O)c1ccc2cccnc2c1O" ?
result: inactive

query: Any idea what this test logged for "CN(C)c1ccc(N=C(C#N)c2nc(N)nc(N3CCN(c4ccccc4)CC3)n2)cc1" ?
result: inactive

query: Any idea what this test logged for "S=C(Nc1ccccc1)N1CCn2c1nsc2=Nc1ccccc1" ?
result: inactive

query: Any idea what this test logged for O=S1(=O)CC(Br)C(Br)C1 (configuration not stated) ?
result: inactive

query: Any idea what this test logged for "CC(=O)O[C@H](C[C@H](C(C)C)N(C)C(=O)[C@@H](NC(=O)[C@H]1CCCCN1C)C(C)(C)C)c1nc(C(=O)N[C@@H](Cc2ccccc2)C[C@H](C)C(=O)O)cs1" ?
result: active

query: Any idea what this test logged for O=C(Nc1ccc(-c2ccnc(Nc3ccc(N4CCOCC4)cc3)n2)cc1)C1CCCN1 (configuration not stated) ?
result: inactive

query: Any idea what this test logged for CCC1OC(/C(C)=C/C(C)/C=C/C2C(C)C2/C=C/C2OC(CC(=O)O)CC(O)C2O)CC=C1C (configuration not stated) ?
result: inactive

query: Any idea what this test logged for "CN1N=Nc2c(C(F)(F)F)nn(-c3ccccc3)c2N(C)C1=O" ?
result: inactive

query: Any idea what this test logged for "C/C=C/C(=O)[O-].N.N.N.N.N.[Co+3].[O-][Cl+3]([O-])([O-])[O-]" ?
result: inactive

query: Any idea what this test logged for "CCC1(CC)C(=O)[N-]C(=O)[N-]C1=O.[Au+].[Au+].c1ccc([PH+](c2ccccc2)c2ccccc2)cc1.c1ccc([PH+](c2ccccc2)c2ccccc2)cc1" ?
result: inactive

query: Any idea what this test logged for N=C1C(c2nc(-c3ccc(Br)cc3)cs2)=C(O)CN1CC1CCCO1 (configuration not stated) ?
result: inactive

query: Any idea what this test logged for "COc1cc(/C=C/c2cc(/C=C/c3ccc(O)c(OC)c3)[nH]c(=O)n2)ccc1O" ?
result: inactive
